Data provenance is PubChem BioAssay.

composite z-score for assorted molecules
measurement description: probe aLefty2 binding to arrayed compounds – biochemical, biotinylated probe, 635/667 nm fluorescence, primary screen (AID 1094);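 further: score merges spot fluorescence near 667 nm with spot signal-to-noise ratio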
protocol conditions: small-molecule microarray, higher = more signal

{"molecule": "C=CCNC(=O)[C@H]1[C@@H]2C(=O)O[C@@H](c3ccccc3)[C@@H](c3ccccc3)N2[C@@H](c2ccc(OCCO)cc2)[C@]12C(=O)N(C(=O)OCCOC)c1ccc(C#CC3=CCCCC3)cc12", "composite z-score": -0.0477}
{"molecule": "COC(=O)[C@@]1(Cc2ccc(OC)cc2)[C@H]2c3cc(C(=O)N(C)C)n(CCF)c3C[C@H]2CN1C(=O)c1ccccc1", "composite z-score": 0.411}
{"molecule": "CC[C@@H]1[C@@H]2C3C(=O)N(CC)C(=O)C3CC(=O)[C@@H]2[C@H](c2ccc(C)cc2)N1S(=O)(=O)c1ccc(C)cc1 (stereo not given in full)", "composite z-score": -0.128}
{"molecule": "CCCCC(=C=CC[C@H](O)c1cccc(OCCO)c1)C[C@H](O)COCc1ccccc1", "composite z-score": -0.195}
{"molecule": "CC(C)C[C@H]1NC(=O)[C@H](C)NC(=O)[C@@]23C(=O)N[C@@H](Cc4ccccc4)C2[C@H](C)[C@@]2(C)O[C@H]2C3/C=C/C/C=C\\CNC1=O (stereo not given in full)", "composite z-score": -0.27}

###

target or test system: Luciferin 4-monooxygenase (Photinus pyralis) (UniProt P08659)
Sequence (P08659 whole entry, looked up): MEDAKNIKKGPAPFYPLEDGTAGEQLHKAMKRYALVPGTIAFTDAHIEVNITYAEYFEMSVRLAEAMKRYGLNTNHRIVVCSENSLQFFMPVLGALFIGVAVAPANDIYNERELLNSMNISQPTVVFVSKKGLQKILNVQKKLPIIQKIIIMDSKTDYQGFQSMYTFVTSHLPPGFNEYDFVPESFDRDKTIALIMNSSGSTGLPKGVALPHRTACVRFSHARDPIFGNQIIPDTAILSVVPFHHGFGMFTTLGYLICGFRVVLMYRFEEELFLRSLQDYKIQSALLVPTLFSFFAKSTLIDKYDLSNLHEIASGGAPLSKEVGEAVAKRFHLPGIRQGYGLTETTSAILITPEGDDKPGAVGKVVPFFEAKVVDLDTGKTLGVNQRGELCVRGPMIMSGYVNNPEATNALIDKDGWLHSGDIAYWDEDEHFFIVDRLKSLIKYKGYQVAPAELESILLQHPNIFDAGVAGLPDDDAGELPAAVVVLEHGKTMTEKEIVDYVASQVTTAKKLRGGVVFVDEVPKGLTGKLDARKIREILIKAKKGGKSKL
measurement description: inhibition of purified Photinus pyralis luciferase – biochemical, luminescence, purified enzyme, 2006 set, primary screen (AID 1141);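 further: cell-free assay with purified firefly luciferase at 100 ng per well in PBS; test concentration not given here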
protocol conditions: purified firefly luciferase, SteadyGlo luminescence, 30 min; higher = more signal, called active from +8 up or from −8 down
Record Yes whenever z-score is at -1 or higher; record No when lower.

{"molecule": "CN(C)C(=O)[C@]1(Cc2ccccc2N=[N+]=[N-])N=C(c2ccc(OCCCO)cc2)O[C@@H]1c1ccccc1CN=[N+]=[N-]", "qualitative label": "Yes"}
{"molecule": "[N-]=[N+]=Nc1ccccc1[C@H]1OC(c2ccc(OCCCO)cc2)=N[C@@]1(Cc1ccccc1)C(=O)NCc1ccccc1", "qualitative label": "No"}
{"molecule": "CC1=C2[C@@H](CCc3ccccc3)OB(O)C[C@@H]2[C@@H]2C(=O)C=CC(=O)[C@@H]2C1", "qualitative label": "No"}
{"molecule": "O=C1CSC(c2cccc([N+](=O)[O-])c2)N1c1ccccc1 (stereo not drawn)", "qualitative label": "Yes"}
{"molecule": "COCCOC(=O)N1C(=O)[C@@]2(c3cc(C#CCNC(N)=O)ccc31)[C@H](C(=O)N1CCCCCCC1)[C@H]1C(=O)O[C@H](c3ccccc3)[C@H](c3ccccc3)N1[C@@H]2c1ccc(OCCO)cc1", "qualitative label": "No"}
{"molecule": "COC(=O)[C@@]1(Cc2ccccc2)[C@H]2c3cc(C(=O)N(C)C)n(Cc4ccc(O)c(OC)c4)c3C[C@H]2CN1C(=O)c1ccccc1", "qualitative label": "Yes"}
{"molecule": "C=CC[C@]1(C(=O)N2CCOCC2)N=C(c2ccc(OCCCO)cc2)O[C@H]1c1ccccc1CN=[N+]=[N-]", "qualitative label": "No"}
{"molecule": "COc1cccc(C)c1NC(=O)O[C@H]1[C@H](OC(=O)Nc2ccccc2)[C@H](OC(=O)Nc2ccccc2)[C@@H](OC)O[C@@H]1CO", "qualitative label": "Yes"}

###

target or test system: Streptavidin (Streptomyces avidinii) (UniProt P22629)
Sequence (P22629 whole entry, looked up): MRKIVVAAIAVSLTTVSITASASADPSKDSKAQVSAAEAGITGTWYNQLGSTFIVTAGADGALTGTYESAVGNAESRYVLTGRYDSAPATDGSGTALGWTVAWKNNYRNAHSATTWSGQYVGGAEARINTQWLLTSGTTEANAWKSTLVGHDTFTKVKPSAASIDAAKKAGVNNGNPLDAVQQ
measurement description: compounds binding control protein streptavidin – biophysical, small-molecule microarray, 635/667 nm fluorescence, artefact control for SMM compound annotation, primary screen (AID 1147);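 further: signal reflects streptavidin binding to arrayed compounds as a control protein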
protocol conditions: higher = more signal
Record condition met whenever composite z-score is at -0.02 or higher; record condition not met when lower.

{"smiles": "CCCCC(=C=CC[C@H](O)c1ccccc1OCCO)C[C@H](O)c1ccccn1", "qualitative label": "condition met"}
{"smiles": "COc1ccc([Si](C)(C)[C@@H]2[C@@H](CC(=O)N(CCO)Cc3ccccc3)O[C@]3(C(=O)N(C)c4c(Br)cc(C)cc43)[C@H]2C)cc1", "qualitative label": "condition not met"}
{"smiles": "C=CCNC(=O)[C@H]1[C@@H]2C(=O)O[C@@H](c3ccccc3)[C@@H](c3ccccc3)N2[C@@H](c2ccc(O)cc2)[C@]12C(=O)N(C(=O)OCCOC)c1ccc(C#CC3(O)CCCCCC3)cc12", "qualitative label": "condition not met"}
{"smiles": "NC(=O)NCC#Cc1ccc2c(c1)[C@]1(C(=O)N2)[C@H](c2ccc(O)cc2)N2[C@H](c3ccccc3)[C@H](c3ccccc3)OC(=O)[C@H]2[C@@H]1C(=O)NC[C@H](O)c1ccccc1", "qualitative label": "condition not met"}
{"smiles": "CC(C)CN1C(=O)[C@@]2(Cc3ccccc31)c1ccccc1C(=O)N(Cc1ccccc1)[C@H]2c1ccc(CO)cc1", "qualitative label": "condition not met"}

###

target or test system: Alpha-bungarotoxin (Bungarus multicinctus)
measurement description: compounds binding labelled alpha-BTX control protein – biochemical, small-molecule microarray, Alexa647 label, 635/667 nm fluorescence, artefact control for SMM control protein annotation, profiling panel (AID 1117)
protocol conditions: alpha-BTX-A647 binding fluorescence, higher = more signal

{"compound": "C[N+](C)(C)CCCCNC(=O)[C@H]1C[C@H]2C(=O)NCC(=O)N2[C@H]1c1ccc(O)cc1", "composite z-score": 0.832}
{"compound": "Cc1ccc(S[C@]2(C(=O)NCCN3CCOCC3)CC(=O)N(C3Cc4ccccc4C3)[C@@H]2c2ccc(CO)cc2)cc1", "composite z-score": 0.0451}
{"compound": "COc1cccc(C)c1NC(=O)O[C@H]1[C@H](OC(=O)Nc2ccccc2)[C@H](OC(=O)Nc2ccccc2)[C@@H](OC)O[C@@H]1CO", "composite z-score": 1.3}
{"compound": "CCN(CC)c1ccc(N2CC=CC34O[C@@H]5/C=C\\CCCOC(=O)C5[C@H]3C(=O)N(CCCCCO)[C@@H]4C2=O)cc1 (some centres undefined)", "composite z-score": -1.04}

###

measurement description: small molecules captured by biotinylated probe aFGF10 – biochemical, small-molecule microarray, fluorescence 635/667, stem cell growth factor project, primary screen (AID 1071);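 further: score merges 667 nm spot intensity and signal to noise from triplicate slides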
protocol conditions: higher = more signal

{"molecule": "COc1ccc([Si](C)(C)[C@H]2[C@H](CCO)O[C@@]3(C(=O)N(Cc4cccc(N5CCOC5=O)c4)c4ccccc43)[C@@H]2C)cc1", "composite z-score": 0.674}
{"molecule": "O=C1c2ccccc2[C@](Cc2ccccc2I)(C(=O)NCC(F)(F)F)[C@H](c2ccc(CO)cc2)N1Cc1ccccc1", "composite z-score": 0.15}
{"molecule": "COCCCNC(=O)[C@]1(Cc2ccccc2CN=[N+]=[N-])N=C(c2ccc(OCCCO)cc2)O[C@@H]1c1ccccc1CN=[N+]=[N-]", "composite z-score": 1.03}
{"molecule": "COc1ccc(C(=O)Nc2ccc3c(c2)[C@]2(O[C@@H](CCO)[C@H]([Si](C)(C)c4ccc(OC)cc4)[C@H]2C)C(=O)N3Cc2ccccc2)cc1", "composite z-score": -0.0615}
{"molecule": "CCOC(=O)C[C@H]1[C@H](OC(=O)c2ccccc2-c2ccccc2)[C@@H](NC(=O)c2ccccc2)c2cc(OCCCO)ccc2N1C(=O)Cc1ccc(OC)cc1", "composite z-score": 0.149}
{"molecule": "CC(C)c1ccc(NN2C(C(O)c3ccccn3)C=CC3C(=O)N(c4ccccc4)C(=O)C32)cc1 (centres undefined)", "composite z-score": 1.17}
{"molecule": "CCCCCCC#C[Si](O[C@H](c1ccccc1)c1cn(Cc2cccc(Cl)c2)nn1)(C(C)C)C(C)C", "composite z-score": 0.238}
{"molecule": "CC1C=C(CCCO)C=C(C(=O)OCCS(C)(=O)=O)C(C(=O)OCCS(C)(=O)=O)=CN1Cc1cccc(OC(F)(F)F)c1 (centres undefined)", "composite z-score": 0.203}
{"molecule": "COC(=O)C(CC#Cc1ccc2c(c1)[C@]1(C(=O)N2)[C@H](C(=O)N2CCc3cc(OC)c(OC)cc3C2)[C@H]2C(=O)O[C@H](c3ccccc3)[C@H](c3ccccc3)N2[C@@H]1c1ccc(OCCO)cc1)C(=O)OC", "composite z-score": 0.945}
{"molecule": "CC(C)c1ccc(NN2C(C(O)c3cccs3)C=CC3C(=O)N(c4ccccc4)C(=O)C32)cc1 (centres undefined)", "composite z-score": 0.353}
{"molecule": "CN(C)CCCCCCNC(=O)[C@@H]1C[C@@H]2C(=O)NCC(=O)N2[C@@H]1c1ccc(O)cc1", "composite z-score": 1.26}
{"molecule": "COCCCNC(=O)[C@@H]1c2ccccc2C(=O)N(Cc2cc(F)cc(C(F)(F)F)c2)[C@H]1c1ccc(CO)cc1", "composite z-score": -0.535}
{"molecule": "CC1CC/C=C\\[C@H]2OC34C=CCN(c5ccc(Cl)cc5)C(=O)[C@H]3N(C(CO)C(C)C)C(=O)[C@]4(C)C2C(=O)O1 (some centres undefined)", "composite z-score": -0.38}
{"molecule": "CCOC(=O)C[C@H]1[C@H](OC(=O)Cc2ccc3c(c2)OCO3)[C@@H](NC(=O)c2ccccc2)c2cc(OCCCO)ccc2N1C(=O)c1ccccc1", "composite z-score": 0.346}
